Items are presented alongside their recorded log10 of IC50.
Biological target: human LPAR1 (Homo sapiens, UniProt Q92633)
Construct: host or cells: TangoEDG2-bla U2OS cells
Sequence (Q92633 whole entry): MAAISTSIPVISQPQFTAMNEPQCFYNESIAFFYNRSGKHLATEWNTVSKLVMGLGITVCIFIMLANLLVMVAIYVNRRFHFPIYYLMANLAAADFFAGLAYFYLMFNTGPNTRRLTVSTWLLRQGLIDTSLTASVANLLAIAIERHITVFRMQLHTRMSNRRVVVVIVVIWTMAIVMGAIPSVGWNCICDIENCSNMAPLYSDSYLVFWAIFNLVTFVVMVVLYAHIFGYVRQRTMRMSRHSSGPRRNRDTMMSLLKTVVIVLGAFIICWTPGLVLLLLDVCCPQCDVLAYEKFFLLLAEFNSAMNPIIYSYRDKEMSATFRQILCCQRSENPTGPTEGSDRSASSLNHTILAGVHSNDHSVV
Assay: Arrestin assay (Arrestin Reporter EDG2-bla U2OS), inhibition of LPA-stimulated signal
Assay type: cell-based
Conditions: TangoEDG2-bla U2OS cells expressing human LPAR1; 0.25 μM LPA; read-out: Arrestin Reporter EDG2-bla U2OS Human Merged IC50
Form field - Quantity: IC50; Unit: nM; Scale: log10

Completed entries (count: 10):
COMPOUND: COc1cnn(C[C@H](CN2CCC(C(=O)Nc3ccc(Cl)cc3OC(F)F)(n3nccc3C(C)C)CC2)C(=O)O)c1 [Compound 202]
SUBJECT_OF_TEST: human LPAR1 (Homo sapiens, UniProt Q92633)
log10 of IC50: 1.66

COMPOUND: CC(C)c1ccnn1C1(C(=O)Nc2ccc(Cl)cc2OC(F)F)CCN(C[C@@](C)(O)C(=O)O)CC1 [Compound 235]
SUBJECT_OF_TEST: human LPAR1 (Homo sapiens, UniProt Q92633)
log10 of IC50: 1.32

COMPOUND: CC1(C)CCc2cnn(C3(C(=O)Nc4ccc(Cl)cc4OC(F)F)CCN(CC4(C(=O)O)CCOCC4)CC3)c21 [Compound 35]
SUBJECT_OF_TEST: human LPAR1 (Homo sapiens, UniProt Q92633)
log10 of IC50: 1.64

COMPOUND: CC(C)c1ccnn1C1(C(=O)Nc2ccc(Cl)cc2OC(F)F)CCN(C2CC(C(=O)O)C2)CC1 (stereo not drawn) [Compound 46]
SUBJECT_OF_TEST: human LPAR1 (Homo sapiens, UniProt Q92633)
log10 of IC50: 1.80

COMPOUND: CC(C)c1c(F)cnn1C1(C(=O)Nc2ccc(Cl)cc2OC(F)F)CCN([C@H]2C[C@@H](C(=O)O)C2)CC1 (single isomer, unassigned) [Compound 123]
SUBJECT_OF_TEST: human LPAR1 (Homo sapiens, UniProt Q92633)
log10 of IC50: 1.59

COMPOUND: COc1cccc([C@@H](CN2CCC(C(=O)Nc3ccc(Cl)cc3OC(F)F)(n3nccc3C(C)C)CC2)C(=O)O)c1 [Compound 33]
SUBJECT_OF_TEST: human LPAR1 (Homo sapiens, UniProt Q92633)
log10 of IC50: 0.71

COMPOUND: CO[C@H]1CC[C@H]([C@@H](CN2CCC(C(=O)Nc3ccc(Cl)cc3OC(F)F)(n3nccc3C(C)C)CC2)C(=O)O)CC1 [Compound 187]
SUBJECT_OF_TEST: human LPAR1 (Homo sapiens, UniProt Q92633)
log10 of IC50: 1.88

COMPOUND: CC(C)c1ccnn1C1(C(=O)Nc2ccc(Cl)cc2OC(F)F)CCN(CC2(CC(=O)O)CC2)CC1 [Compound 49]
SUBJECT_OF_TEST: human LPAR1 (Homo sapiens, UniProt Q92633)
log10 of IC50: 1.86

COMPOUND: CC(C)c1ccnn1C1(C(=O)Nc2ccc(Cl)cc2OC(F)F)CCN(CC2(C(=O)O)CC3(CCC3)C2)CC1 [Compound 31]
SUBJECT_OF_TEST: human LPAR1 (Homo sapiens, UniProt Q92633)
log10 of IC50: 0.82

COMPOUND: CC(C)c1ccnn1C1(C(=O)Nc2ccc(Cl)cc2OC(F)F)CCN(C[C@@H](COCC(F)(F)F)C(=O)O)CC1 [Compound 233]
SUBJECT_OF_TEST: human LPAR1 (Homo sapiens, UniProt Q92633)
log10 of IC50: 0.95

Value of measured log10 of IC50 for the entry CC(C)c1ccnn1C1(C(=O)Nc2ccc(Cl)cc2OC(F)F)CCN(C[C@H](C(=O)O)N2CCOC(C)(C)C2)CC1 [Compound 166] : 2.08

Value of measured log10 of IC50 for the entry CC(C)OC(=O)N1CCC(CN2CCC(C(=O)Nc3ccc(Cl)cc3OC(F)F)(n3nccc3C(C)C)CC2)(C(=O)O)CC1 [Compound 88] : 1.12
